- target.system: T1, PinR (AIY20223.2, TetR family) (Pimelobacter simplex)
- T1 chain: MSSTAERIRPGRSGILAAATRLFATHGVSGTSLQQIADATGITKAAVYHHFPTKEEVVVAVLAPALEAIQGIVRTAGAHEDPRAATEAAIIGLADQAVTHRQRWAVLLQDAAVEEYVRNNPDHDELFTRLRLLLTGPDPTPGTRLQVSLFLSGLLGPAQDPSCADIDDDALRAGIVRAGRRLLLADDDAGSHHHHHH
- protocol.details: FRET; progesterone concentration for half-maximal DNA release; QD/TF/DNA 1/4/18; described as strongest binding sequence
- conditions: tags: C-terminal His6, self-assembled on CdSe/CdS/ZnS quantum dot; label: Cy5 at 5' and 3'
observation.type: IC50 (nM)
Answer in nM, number only, no unit symbol.

In: Reported IC50, binder DNA1 (AIY20223.2) (dsDNA) DNA 1: GCCTAACTAGCCGTTCGGCTAGTTATTC DNA 2: GAATAACTAGCCGAACGGCTAGTTAGGC : ____
Out: 460
